# IC50 of pseudovirus infection (luciferase) annotations
# Study Target: spike protein of SARS-CoV-2 (Wuhan strain) on pseudovirus (SARS-CoV-2 (Wuhan strain), UniProt P0DTC2 14-1254)
# Test Name: cell-based or functional assay
Recorded Endpoint: IC50 of pseudovirus infection (luciferase) (µg/mL)

Binder	Output Unit	Measurement
Ab496 (antibody, V domains shown) VH: EVQLVQSGPEVKKPGTSVKVSCKASGFIFTNSAVQWVRQARGQRLEWIGWIVVGSGNPNYAQKFQERVTITRDRSTSTAYMELSSLTSEDTAVYYCAAFPYYYDNSGSGPWGQGTLVTVSS VL: DIQLTQSPSSLSASVGDRVTITCQASQDIRNNLNWYQQIPGKAPKLLIYDASNLETGVPSRFSGSASGTDFTFTISSLQPEDVATYYCQQYANLPPFTFGPGTKVDIK	µg/mL	0.00362
Ab709TK (antibody, V domains shown) VH: QVQLVESGGGVVQPGKSLRLSCAASGFTFSSYAMHWVRLAPGKGLEWVAVISPDGKNKYYVDSVKGRSTISRDNSKNTLYLLMNSLRAEDTAVYYCATTQSLWFGQFYYIYGMDVWGQGTTVTVSS VL: QSVLTQPHSVSESPGKTITISCTGSSGSIASNYVQWYQQRPGSAPTTVIYEDTERPSGVPDRFSGSIDSSSNSASLTISGLKTEDEADYYCQSYDSNNVVFGGGTKLTVL	µg/mL	0.0717
Ab159 (antibody, V domains shown) VH: QVQLVESGGGLVKPGGSLRLSCAASGFTFNNAWMSWVRQAPGKGLEWVGRIKSKTDGGTTDYAAPVKGRFTFSRDDSKNTLYLQMSSLKTEDTALYYCTTADYDILTGTPASPYWGQGTLVTVSS VL: DIQMTQSPSSLSASVGDRVTITCRASQSITNYLNWYQQKPGKAPKFLIYAASSLQGGVPSRFRGSGSGTDFTLTISSLQPEDFATYYCQQTYSTLWTFGQGTKVEIK	µg/mL	0.00852
Ab816 (antibody, V domains shown) VH: QVQLVQSGAEVKKPGESLMISCKASGYNFRNYWIAWVRQMPGKGLEWMGIIHPGDSDIRYRPSLQGHVTISADKSITTAYLQWGSLKASDTAMYYCTRITTDADSSGLFHYWGQGTLVTVSS VL: EIVLTQSPSTLSASVGDRVTITCRASQNIYTWLAWYQRKPGKAPKVLIYKASSLESGVPSRFSGSGSGTEFTLTISSLQPDDFATYYCQQYKSAWSFGQGTKVEIK	µg/mL	0.023
Ab712 (antibody, V domains shown) VH: QVQLVQSGSELKKPGASVKISCKASGYTFINHAINWVRQAPGQGLEWMGWINTNTGNPTYAPGFTGRFVFSLDTSVSTAYLQISSLKAEDTAVYYCARIPIRDYDYDGSGYYYFLDYWGQGTLVTVSS VL: SYELTQDPAVSVALGQTVRITCQGDSLRSSSASWYQQKPGQAPVLVIYGKTNRPSGIPDRFSGSSSGNTASLTITGAQAEDEADYYCNSRDNSGNHPVVFGGGTKLTVL	µg/mL	0.105
